Where do the numbers come from? From ChEMBL document CHEMBL1153318.

- Protocol text: Solubility in 0.05 M phosphate buffer at 200 uM at pH 7.4 after 15 mins by HPLC
- Type: physicochemical
Each entry below carries its recorded solubility at 0.25 h, 200 µM.
Your answer should be a plain number; it is taken to be in µM.

These solved cases illustrate the format of a correct answer.
INSERT INTO results (molecule, u, numeric_readout) VALUES
  ('COc1cc2ncn(-c3cc(O[C@H](C)c4ccccc4Cl)c(C(N)=O)s3)c2cc1OC [GSK-237701A]', 'µM', 2),
  ('COc1ccc2ncn(-c3cc(O[C@H](C)c4ccccc4C(F)(F)F)c(C(N)=O)s3)c2c1 [GSK-317315A]', 'µM', 1),
  ('CC(Oc1cc(-n2cnc3ccc(OC4CCNCC4)cc32)sc1C(N)=O)c1ccccc1C(F)(F)F (single isomer, unassigned)', 'µM', 104),
  ('CC(Oc1cc(-n2cnc3ccc(OC[C@@H](O)CO)cc32)sc1C(N)=O)c1ccccc1Cl (single isomer, unassigned) [GSK-978744A]', 'µM', 15),
  ('CC(Oc1cc(-n2cnc3ccc(O[C@@H]4CCCN(C)CC4)cc32)sc1C(N)=O)c1ccccc1Cl (single isomer, unassigned)', 'µM', 200);

Data point: CC(Oc1cc(-n2cnc3ccc(OC4CCN(C)CC4)cc32)sc1C(N)=O)c1ccccc1C(F)(F)F (single isomer, unassigned) ; solubility at 0.25 h, 200 µM = 179

====

Each entry below carries its recorded pIC50.
- Target under test: Phosphatidylinositol 4,5-bisphosphate 3-kinase catalytic subunit delta isoform (Homo sapiens)
- Sequence (O00329 whole entry, canonical isoform): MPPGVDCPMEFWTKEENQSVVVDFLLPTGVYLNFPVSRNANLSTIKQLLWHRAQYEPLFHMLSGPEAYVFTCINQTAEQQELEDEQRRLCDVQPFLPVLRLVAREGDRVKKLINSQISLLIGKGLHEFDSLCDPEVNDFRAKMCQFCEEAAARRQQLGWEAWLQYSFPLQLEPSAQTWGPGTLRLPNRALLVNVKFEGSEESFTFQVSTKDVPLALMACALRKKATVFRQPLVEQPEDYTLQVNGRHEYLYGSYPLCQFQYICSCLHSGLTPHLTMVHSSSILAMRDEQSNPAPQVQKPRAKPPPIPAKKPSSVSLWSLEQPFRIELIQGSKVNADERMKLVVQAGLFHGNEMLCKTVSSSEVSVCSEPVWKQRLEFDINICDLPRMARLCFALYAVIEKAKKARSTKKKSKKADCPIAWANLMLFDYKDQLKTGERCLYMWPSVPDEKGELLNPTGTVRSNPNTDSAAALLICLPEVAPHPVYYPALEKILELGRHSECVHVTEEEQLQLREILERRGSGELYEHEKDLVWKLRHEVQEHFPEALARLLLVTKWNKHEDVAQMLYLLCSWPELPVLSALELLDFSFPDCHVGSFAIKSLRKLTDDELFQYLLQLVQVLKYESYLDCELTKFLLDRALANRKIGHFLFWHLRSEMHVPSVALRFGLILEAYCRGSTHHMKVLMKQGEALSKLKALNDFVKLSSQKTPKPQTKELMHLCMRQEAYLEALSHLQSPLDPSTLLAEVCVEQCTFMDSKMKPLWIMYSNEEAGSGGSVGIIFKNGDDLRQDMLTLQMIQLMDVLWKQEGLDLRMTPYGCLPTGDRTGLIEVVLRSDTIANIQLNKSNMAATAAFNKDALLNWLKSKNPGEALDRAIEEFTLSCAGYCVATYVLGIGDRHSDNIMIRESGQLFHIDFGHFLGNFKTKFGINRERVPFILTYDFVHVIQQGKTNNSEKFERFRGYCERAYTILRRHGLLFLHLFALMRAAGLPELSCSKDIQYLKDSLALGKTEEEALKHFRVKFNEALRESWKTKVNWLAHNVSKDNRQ
- Protocol text: Inhibition of human PI3Kdelta
Note on units: pIC50 is unitless, being -log10 of a concentration expressed in mol/L.

INSERT INTO assay_data (compound, numeric_readout) VALUES
  ('CC(Oc1cc(-n2cnc3ccc(OC4CCN(C)CC4)cc32)sc1C(N)=O)c1ccccc1Cl (single isomer, unassigned) [GSK-579289A]', 6.36);

Data point: CC(Oc1cc(-n2cnc3ccc(OC4CCN(C)CC4)cc32)sc1C(N)=O)c1ccccc1C(F)(F)F (single isomer, unassigned) ; pIC50 = 6.28

====

- Target under test: UniProt:P35968
- Sequence (P35968 whole entry): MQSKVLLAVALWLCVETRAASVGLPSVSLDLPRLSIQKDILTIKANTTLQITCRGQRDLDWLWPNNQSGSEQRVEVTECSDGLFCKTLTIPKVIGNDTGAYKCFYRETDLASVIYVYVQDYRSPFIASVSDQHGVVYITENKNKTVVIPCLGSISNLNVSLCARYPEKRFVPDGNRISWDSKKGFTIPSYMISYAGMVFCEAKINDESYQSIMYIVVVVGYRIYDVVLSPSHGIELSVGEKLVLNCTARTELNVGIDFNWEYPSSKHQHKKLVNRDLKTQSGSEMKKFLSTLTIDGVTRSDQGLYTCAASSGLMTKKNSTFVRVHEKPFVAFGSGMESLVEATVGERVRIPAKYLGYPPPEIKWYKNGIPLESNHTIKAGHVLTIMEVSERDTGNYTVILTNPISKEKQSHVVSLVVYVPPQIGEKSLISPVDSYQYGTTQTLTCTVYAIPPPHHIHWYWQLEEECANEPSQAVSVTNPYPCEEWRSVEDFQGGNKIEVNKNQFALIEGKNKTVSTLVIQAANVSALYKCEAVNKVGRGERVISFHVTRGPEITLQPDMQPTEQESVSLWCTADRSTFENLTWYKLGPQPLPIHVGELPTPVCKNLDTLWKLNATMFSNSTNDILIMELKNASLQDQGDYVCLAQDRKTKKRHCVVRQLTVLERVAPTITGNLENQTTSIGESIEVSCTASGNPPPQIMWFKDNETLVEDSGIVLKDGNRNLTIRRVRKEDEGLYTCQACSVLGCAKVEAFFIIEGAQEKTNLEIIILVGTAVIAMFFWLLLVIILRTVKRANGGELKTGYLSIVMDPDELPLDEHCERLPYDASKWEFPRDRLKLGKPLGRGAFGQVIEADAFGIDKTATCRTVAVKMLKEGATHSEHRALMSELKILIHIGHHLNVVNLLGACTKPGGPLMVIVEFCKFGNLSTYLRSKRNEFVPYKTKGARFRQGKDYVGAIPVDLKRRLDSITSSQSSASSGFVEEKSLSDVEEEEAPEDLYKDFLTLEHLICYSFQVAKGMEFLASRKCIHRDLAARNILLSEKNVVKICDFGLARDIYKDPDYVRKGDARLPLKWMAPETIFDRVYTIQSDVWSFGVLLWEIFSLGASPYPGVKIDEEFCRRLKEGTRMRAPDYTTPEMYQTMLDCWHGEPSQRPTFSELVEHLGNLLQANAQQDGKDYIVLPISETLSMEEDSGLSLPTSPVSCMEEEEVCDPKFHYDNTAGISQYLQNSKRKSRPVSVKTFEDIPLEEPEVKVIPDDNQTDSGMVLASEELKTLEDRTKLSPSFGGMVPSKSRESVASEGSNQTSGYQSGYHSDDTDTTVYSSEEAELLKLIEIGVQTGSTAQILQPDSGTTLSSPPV
Measured property: pIC50
Note on units: pIC50 is unitless, being -log10 of a concentration expressed in mol/L.

# pIC50 measured on UniProt:P35968 for item CC(Oc1cc(-n2cnc3ccc(OC4CCN(C)CC4)cc32)sc1C(N)=O)c1ccccc1Cl (single isomer, unassigned) [GSK-579289A] = 5.92

====

Each entry below carries its recorded pIC50.
- Tested on: MX1
- Protocol text: Antiproliferative activity against human MX1 cells after 72 hrs by luminescence-based cell viability assay
- Format: functional
- Protocol conditions: MX1, 72 h
Note on units: pIC50 is unitless, being -log10 of a concentration expressed in mol/L.

INSERT INTO measurements (compound, measured_property, numeric_readout) VALUES
  ('CC(Oc1cc(-n2cnc3ccc(OC4CCN(C)CC4)cc32)sc1C(N)=O)c1ccccc1Cl (single isomer, unassigned) [GSK-579289A]', 'pIC50', 8.05);

Next item in the queue.
Data point: CC(Oc1cc(-n2cnc3ccc(OC4CCN(C)CC4)cc32)sc1C(N)=O)c1ccccc1C(F)(F)F (single isomer, unassigned) ; pIC50 = 8.00
